- Test system: HL-60
- Procedure summary: NCI tumour cell line growth inhibition, 48 h
Activity calls are given as the source filed them. Cut-off read from the data, not from the text of the source: active = GI50 up to about 1.1 µM and inactive = higher.
Outcome (select one): Yes (active), No (inactive)

Consider the worked cases shown below.
Compound	Class name
COc1cc(-c2cc(=O)c3c(O)c(OC)c(OC)c(OC)c3o2)cc(OC)c1OC [GARDENIN]	No
COC(=O)C(Cc1c[nH]c2ccccc12)NC(=O)C(Cc1c[nH]cn1)NC(=O)C1CCC(=O)N1C(=O)OCc1ccccc1 (configuration not stated)	No
Clc1ccc(/N=c2\oc3ccccc3cc2-c2nc3ccccc3[nH]2)c(Cl)c1	No
CCOC(=O)c1c(NS(=O)(=O)c2ccc(C)cc2)sc2c1CCCC2	No
O=c1cc(/N=N/c2ccc(O)cc2)[nH]c(=O)[nH]1	No

From here, focus on the item given below.
stdin: Query: recorded result category for COC1=CC(=O)c2nc3ccccc3c3ccnc1c23 in this test
stdout: No

###

- Tested on: XF498
- Procedure summary: NCI tumour cell line growth inhibition, 48 h
Active and inactive are the calls of the source. Cut-off read from the data, not from the text of the source: active = GI50 up to about 1.1 µM and inactive = higher.
Outcomes you can answer with include only these: t = active, f = inactive

Compound	Class name
COc1ccccc1/C=C1\CCC(CNc2ccc(Cl)cc2)C1=O (stereo not given)	f
COC(=O)C1C2CC3C(OC(=O)C31)C2OC(=O)[C@](OC)(c1ccccc1)C(F)(F)F (stereo not given in full)	f

stdin: Call for entry CCC/C(=N\NC(=S)N1CC2CCC(CC2)C1)c1ccccn1 :
stdout: t

stdin: Status in this test for COC(=O)C(=O)CC(=O)CCn1[nH]c(=O)c(Cl)c(Cl)c1=O ?
stdout: f

stdin: Record lookup: outcome of this test for CN(C)c1cccc(OC(=O)NCCCl)c1 ?
stdout: f

stdin: State the result this test recorded for CC(C)Cc1ccc(C(C)/C=C2\CCC(CN3CCOCC3)C2=O)cc1 (stereo not given) .
stdout: f

stdin: Fill in: this test's call for CC[C@H]1CN2CCc3cc(OC)c(OC)cc3[C@@H]2C[C@@H]1C[C@H]1NCCc2c1[nH]c1ccc(O)cc21 is ___
stdout: t

###

- Tested on: HOP-92
- Procedure summary: NCI tumour cell line growth inhibition, 48 h
Active and inactive are the calls of the source. No stated cut-off is given here; in the data, active = GI50 up to about 1.1 µM and inactive = higher.
Outcome field: choose from true (1) for active, false (0) for inactive

Known results for molecules:
Molecule	Class name
O=c1ccn(CC2(CO)CCCC2)c(=O)[nH]1	false (0)
Cc1nc(N)c(-c2ccccc2)s1	false (0)
O=C(c1ccccc1)N(CCCCNC(=O)C(F)(F)F)CCCNC(=O)C(F)(F)F	false (0)
COc1cc(C)c2c(c1)CN1CN2Cc2cc(OC)cc(C)c21	false (0)
CN(C)c1cccc(OC(=O)NCCCl)c1	false (0)
CC(=O)OCC1OC(OC2CC3C(C)(C)C(=O)CC[C@]3(C)C3CC[C@]45C[C@]4(CCC5[C@@H](C)CC(O)C(O)C(C)(C)O)[C@]23C)C(O)C(O)C1O (some centres not stated)	false (0)
CC(O)(c1ccccc1)c1nccc2ccccc12 (configuration not stated)	false (0)
O=Cc1cc([N+](=O)[O-])no1	false (0)

Next molecule, please.
stdin: Tell me the recorded outcome of this test for C=C(C)[C@@]12C[C@H](OC(=O)[C@H](O)[C@@H](NC(=O)c3ccccc3)c3ccccc3)C(C)=C1[C@@H](OC(C)=O)C(=O)[C@@]1(C)C([C@@H]2OC(=O)c2cc(F)cc(F)c2)C2(OC(C)=O)CO[C@@H]2C[C@@H]1O (some centres not stated) .
stdout: false (0)
